Test system: PC-3 cells
assayMethodText: MTT viability assay, PC-3
Type: cell-based
measurementConditions: Homo sapiens, PC-3, Table 3; antitumor activities against PC-3 cells; read-out: IC50
propertyName: pIC50
Expect pIC50 as a plain number equal to -log10 of the molar concentration.

Cc1c(O)cc2c(c1C)O[C@](C)(CCCC(C)C)CC2: 5.07

Continue with the next compound.
Task item: Could you share which pIC50 value was measured for Cc1c(O)cc2c(c1C)OC(C)(CCCC(C)C)CC2=O (centres unmarked) ?
Reply: 5.30

* * *

systemTested: VL2-deleted mutant of the PH domain of Akt (Homo sapiens, UniProt P31749)
Sequence (P31749 whole entry, looked up, stated change not applied, the tested form may be a part): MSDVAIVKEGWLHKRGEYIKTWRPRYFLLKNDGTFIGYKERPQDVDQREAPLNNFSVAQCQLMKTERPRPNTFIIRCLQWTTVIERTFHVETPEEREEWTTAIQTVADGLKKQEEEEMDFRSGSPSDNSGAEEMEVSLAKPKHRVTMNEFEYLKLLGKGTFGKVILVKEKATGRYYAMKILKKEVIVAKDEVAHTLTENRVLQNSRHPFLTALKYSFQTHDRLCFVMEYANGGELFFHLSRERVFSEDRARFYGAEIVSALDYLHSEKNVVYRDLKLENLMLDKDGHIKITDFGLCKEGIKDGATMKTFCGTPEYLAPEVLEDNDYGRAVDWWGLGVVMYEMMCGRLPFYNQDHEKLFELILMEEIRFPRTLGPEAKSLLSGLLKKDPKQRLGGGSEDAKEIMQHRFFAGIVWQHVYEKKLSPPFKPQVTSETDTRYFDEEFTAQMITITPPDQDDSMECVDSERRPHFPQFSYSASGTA
assayMethodText: Surface plasmon resonance binding, VL2-deleted Akt PH domain
measurementConditions: SPR
propertyName: pKd
Expect pKd as a plain number equal to -log10 of the molar concentration.

Task item: Could you share which pKd value was measured for Cc1c(O)cc2c(c1C)O[C@](C)(CCCC(C)C)CC2 [γ-VE5] ?
Reply: 4.52

* * *

systemTested: PH domain of Akt (GST-PH domain fusion protein) (Homo sapiens, UniProt P31749)
Construct: made in house
Sequence (P31749 5-108 limits assumed): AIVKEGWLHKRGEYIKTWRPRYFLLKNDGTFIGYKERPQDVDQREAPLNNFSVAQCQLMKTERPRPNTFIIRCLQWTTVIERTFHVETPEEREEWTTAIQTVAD
assayMethodText: Surface plasmon resonance binding, Akt PH domain
measurementConditions: Table 3; binding affinities to the Akt PH domain; read-out: Kd
Mark YES for Kd under 600 nM, NO if at or over.

Consider the following illustrative entries.
Cc1c(O)cc2c(c1C)OC(C)(CCCC(C)C)CC2=O (centres unmarked): YES
CC(C)CCCC1(C)CCc2cc(O)cc(Br)c2O1 (centres unmarked): NO
COc1cc(O)cc2c1OC(C)(CCCC(C)C)CC2 (centres unmarked): NO

Task item: Please state whether Kd is below 600 nM for CC(C)CCCC1(C)CCc2cc(O)cc(C(F)(F)F)c2O1 (racemic)
Reply: NO

Task item: Please state whether Kd is below 600 nM for CC(C)CCCC1(C)CCc2cc(O)cc(F)c2O1 (centres unmarked)
Reply: YES

Task item: Please state whether Kd is below 600 nM for CC(C)CCCC1(C)CCc2cc(O)cc(O)c2O1 (centres unmarked)
Reply: NO

Task item: Please state whether Kd is below 600 nM for Cc1c(O)cc2c(c1C)NC(C)(CCCC(C)C)CC2 (centres unmarked)
Reply: YES

* * *

Tested on: BxPC-3
assayMethodText: Antiproliferative potency, BxPC-3
Assay type: cell-based
measurementConditions: Homo sapiens, BXPC-3, FBS 0%
propertyName: IC50 (µM)
Give just the numeric value; µM need not be written.

Task item: Could you share which IC50 value was measured for Cc1c(O)cc2c(c1C)OC(C)(CCCC(C)C)CC2=O (stereo not shown) ?
Reply: 7

* * *

Tested on: AsPC-1
assayMethodText: Antiproliferative potency, AsPC-1
Type: cell-based
measurementConditions: Homo sapiens, ASPC1, FBS 5%
propertyName: IC50 (µM)
Give just the numeric value; µM need not be written.

Task item: Could you share which IC50 value was measured for Cc1c(O)cc2c(c1C)OC(C)(CCCC(C)C)CC2=O (stereo not shown) ?
Reply: 18

* * *

Test system: LNCaP cells
assayMethodText: MTT viability assay, LNCaP
Type: cell-based
measurementConditions: Homo sapiens, 1% FBS-containing or serum-free RPMI 1640 medium for 24 h
Experimental: The prostate cancer cell lines, LNCaP and PC-3, were purchased from American Type Culture Collection (Manassas, Va.) and maintained in RPMI 1640 medium containing 10% heat-inactivated fetal bovine serum at 37° C. in a humidified incubator containing 5% CO2. The LNCaP-abl cells were a generous gift from Dr. Qianben Wang (The Ohio State University). […]
Mark 1 (yes) for IC50 under 30 µM, 0 (no) if at or over.

Cc1c(C)c2c(c(C)c1O)CC[C@@](C)(CCCC(C)CCCC(C)C)O2 (stereo partly drawn): 0 (no)

Task item: Please state whether IC50 is below 30 µM for CC(C)CCCC1(C)CCc2cc(N)ccc2O1 (racemic)
Reply: 0 (no)

Task item: Please state whether IC50 is below 30 µM for Cc1c(O)cc2c(c1C)OC(C)(CCCC(C)C)CC2 (racemic)
Reply: 1 (yes)

Task item: Please state whether IC50 is below 30 µM for CC(C)CCCC1(C)CCc2c(O)cc(N3CCCC3)cc2O1 (racemic)
Reply: 1 (yes)

Task item: Please state whether IC50 is below 30 µM for CC(C)CCCC1(C)CCc2ccc(O)c(O)c2O1 (racemic)
Reply: 0 (no)

Task item: Please state whether IC50 is below 30 µM for CC(C)CCCC1(C)CC(=O)c2c(O)cc(N3CCCC3)cc2O1 (racemic)
Reply: 0 (no)

Task item: Please state whether IC50 is below 30 µM for CC(C)CCCC1(C)CCc2c(O)cccc2O1 (racemic)
Reply: 1 (yes)
